Test system: IGROV1 ovarian
EXPERIMENT SUMMARY: NCI-60 one-dose screen, 48 h (100 = growth as untreated, 0 = no growth, -100 = all killed)
PARTICULARS: 10 µM unless noted
Description: Growth inhibition of the IGROV1 human tumor cell line is measured as a screen for anti-cancer activity. Cells are grown in 96 well plates and exposed to the test compound for 48 hours. Compounds are tested at a single concentration, which is 10^-5 M for most compounds. The reported endpoint is percent growth (GI% or GIPRCNT), where numbers from 0 - 100% represent growth inhibition, and numbers from -100% - 0 represent cell death. For example, a value of 40 represents 60% growth inhibition. […]
About 83,000 compounds went through this panel and 20% of them were active in at least one assay; those are over-represented in the sample as a whole.
Recorded growth determines the group label, using L (below 40%), M (40% to below 80%), H (80% or more)

// bin(item) where item = `O=c1c2cc(F)ccc2sc2c(N3CCNCC3)nc3ccc(F)cc3c12`
L

Band of `COc1ccc(N)c(N)c1` ?
H

Class? Entry: `O=C(N/N=C/[C@H](O)[C@H](O)[C@H](O)CO)c1ccc(NC(=O)c2cccnc2)cc1`
H

Quick check: band for `C(=N/Nc1ncnc2nc[nH]c12)/c1ccccn1`
L

Class? Entry: Cc1ccc(C(=O)NN2C(=O)CSC2c2ccc(Cl)cc2)cn1 (stereo unspecified)
M

Class for `Cc1nc2ccccc2n1CC1C(=O)NC(=O)NC1=O` ?
H

Any idea which band `CN1CCN(c2ccc(-c3ccc4ncc(C#N)c(Nc5ccc(F)c(Cl)c5)c4c3)cc2)CC1` is in?
L

Form: Item = `COc1nc2ccccc2cc1-c1nc2c(cnn2-c2ccccc2)c(=O)[nH]1` ; Class = ?
M

Quick check: band for `CCOC(=O)Nc1ccc(-c2nc(-c3cccc(OC)c3)c(-c3ccnc(Br)c3)[nH]2)cc1`
M

For `O=[N+]([O-])c1ccc(Oc2nc(Nc3ccc(O[C@H]4CO[C@H]5[C@@H]4OC[C@@H]5O)c(Cl)c3)ncc2F)c(Cl)c1` , which growth bin applies?
L

Band of Cc1cc(O)c(C2=NN(c3ccc(S(N)(=O)=O)cc3)C(c3ccccc3O)C2)cc1Cl (stereo unspecified) ?
L

Which category does the recorded growth put `CNCCCC12CCC(c3ccccc31)c1ccccc12` in?
H

Which class holds CN(C)CCN1CCN(c2ncccc2C2Nc3ccccc3-n3cccc32)CC1 (stereo unspecified) ?
H

Returns: class label. Input: COc1c(C2CC(=O)Nc3c2c(C)nn3-c2nc3ccccc3[nH]2)cc2c(c1OC)OCO2 (stereo unspecified)
M

Category lookup for the compound `Cc1ccc2sc3c(NCCCN)nc4ccccc4c3c(=O)c2c1`
M

Please report the category associated with `Cc1cc2nc3ccc(N=Nc4ccc(N(C)C)cc4)cc3n(-c3ccccc3)c-2cc1=N` , nothing else.
L

Which bin, given its growth, does `O=c1c2cc(F)ccc2sc2c(N3CCCCC3)nc3ccccc3c12` occupy?
H

Assign a bin to `COc1cc(C(=O)/C=C/c2sc(Cl)nc2Cl)cc(OC)c1OC`
L

* * *

Could you please report measured growth for the items listed next?
System: SNB-19 CNS
EXPERIMENT SUMMARY: NCI-60 one-dose screen, 48 h (100 = growth as untreated, 0 = no growth, -100 = all killed)
PARTICULARS: 10 µM unless noted
About 83,000 compounds went through this panel and 20% of them were active in at least one assay; those are over-represented in the sample as a whole.
Numeric only. Scale: %

Which measured growth belongs to `COc1ccc(/C=C(/C#N)n2nnc3cccc(F)c32)cc1` , tested on SNB-19 CNS?
24.6

Fill in the recorded growth for this molecule, with SNB-19 CNS as test system: `CN1CCN(c2ccc(-c3cc4c(Nc5ccc(F)c(Cl)c5)ncnn4c3)cc2)CC1`
103

What is its growth for SNB-19 CNS? Entry: `COc1ccc(/C=C2\Oc3cc(OCCN4CCC(Cc5ccccc5)CC4)ccc3C2=O)cc1OC`
92.6

Query the reported growth for SNB-19 CNS; item: `CCOc1cccc(NC2=C(Br)C(=O)C(C)=C(C)C2=O)c1`
94

SNB-19 CNS / growth / `Cc1ccc(-c2cnc3sc(C(=O)NCCc4ccccc4)c(C)n23)cc1` : value?
92.1

What growth appears in the records for this molecule with SNB-19 CNS? `COc1ccc(C(=O)N=Nc2c(O)n(C)c3ccccc23)cc1`
87.3

Field: growth (SNB-19 CNS). Entry: COc1cccc2nc3n(c12)C(c1c(F)cccc1F)SC3 (stereo unspecified)
101

For the record `CN1CCN(c2ccc(-c3cc4c(Nc5ccc(F)c(Cl)c5)ncnn4c3)cn2)CC1` , what value of growth is listed for SNB-19 CNS?
96.2

Request - read-out growth | tested on SNB-19 CNS | molecule `COc1ccc(CNC(=O)[C@H](O)[C@@H](N)Cc2ccccc2)cc1`
102

Query for SNB-19 CNS: what growth does the record show for `COc1cc(C(=O)c2cnc(-c3c[nH]c4cccc(C)c34)[nH]2)cc(OC)c1OC` ?
37.9

Quick check: growth on SNB-19 CNS, item `Cc1nc2cnc(N)c(C#Cc3cncc(C(=O)Nc4ccc(CN5CCN(C)CC5)c(C(F)(F)F)c4)c3)c2nc1C` ?
48.2

Give SNB-19 CNS growth for `CN(C)CCNc1nc2ccccc2c2c(=O)c3cc(F)ccc3sc12`
55.4

Which growth is reported with SNB-19 CNS for this entry: `CN1C(=O)CNC(=O)[C@H](NC(=O)c2nc3ccccc3cc2O)CSSC[C@H]1C(=O)NCCc1nc2ccccc2cc1O` ?
87

Form entry - test system: SNB-19 CNS; read-out: growth; molecule: `Nc1nc(-c2cccc3ccccc23)cc2ccccc12`
12

Requested read-out growth, target or system SNB-19 CNS, entry `CN1CCN(c2ccc(-c3cnc4c(-c5csc6ccccc56)cnn4c3)cc2)CC1`
13.3

Hello, I am looking for reported growth with SNB-19 CNS for `Cc1ccc(-c2nc(N3CCN(CC(=O)Nc4ccc(Cl)c(C(F)(F)F)c4)CC3)c3ccccc3n2)cc1` . Could you help?
98.8

Request - read-out growth | tested on SNB-19 CNS | molecule `O=C(O)CCC(=O)Nc1nnc(-c2ccccc2)s1`
105

API: value(readout= growth, system= SNB-19 CNS, query= `O=C1COCCN1c1ccc(NCc2cn(C(=O)c3ccc(Cl)cc3)c3ccccc23)cc1` )
91.7

Please state recorded growth (tested on SNB-19 CNS) of `COc1cc(C(=O)/C=C/c2sc(Cl)nc2Cl)cc(OC)c1OC`
77.6

Give the reported growth for `CCOC(=O)Nc1ccc(-c2nc(-c3cccc(OC)c3)c(-c3ccnc(Br)c3)[nH]2)cc1` (system: SNB-19 CNS).
46.1

Form: Entry = `C=C1CC[C@H](C(C)C)[C@@H]2[C@H]1[C@H]1CC(=C)[C@@H](O)CC[C@@](C)(O)[C@@H]2O1` | System = SNB-19 CNS | growth = ____
91.5

Query for SNB-19 CNS: what growth does the record show for `O=C(N/N=C/c1ccc(Cl)cc1)c1ccc(C(F)(F)F)nc1Nc1cccc(C(F)(F)F)c1` ?
30.4

Recorded growth for `O=C(Nc1c2ccccc2nc2ccccc12)c1ccccc1CN1C(=O)c2ccccc2C1=O` with SNB-19 CNS, please?
32.9

Requested read-out growth, target or system SNB-19 CNS, entry `Cc1[nH]c(C(=O)Nc2ccc(C(=O)N3CCNCC3)cc2OC(C)C)c(Cl)c1Cl`
77.5

Write down the reported growth of `COc1cc(/C=C/C(=O)/C=C/c2cc(OC)c3c(c2OC)OCO3)c(OC)c2c1OCO2` , test system: SNB-19 CNS.
55.4

API: value(readout=growth, system=SNB-19 CNS) for record COc1c(C2CC(=O)Nc3c2c(C)nn3-c2nc3ccccc3[nH]2)cc2c(c1OC)OCO2 (stereo unspecified)
49.6

Observed growth on SNB-19 CNS for CCN1C(=O)N(CC)C2Nn3c(s/c(=C4\C(=O)N(CCC(C)C)c5ccccc54)c3=O)=NC21 (stereo unspecified) , please.
88.6

Please state recorded growth (tested on SNB-19 CNS) of `COc1ccc(C(=O)/C=C/c2sc(Cl)nc2Cl)cc1`
68.9

Form entry - test system: SNB-19 CNS; read-out: growth; molecule: `COc1nc2ccc(C)cc2cc1-c1nc2c(cnn2-c2ccc(Br)cc2)c(=O)[nH]1`
41.8

Field: growth (SNB-19 CNS). Entry: `O=C(Nc1ccc(F)cc1F)c1cc(F)ccc1O`
10.7

Please provide the recorded growth for `O=[N+]([O-])c1ccc(Cl)c(-c2cc(CCCCO)on2)c1` , tested on SNB-19 CNS.
95.4

Notebook: pull reported growth for SNB-19 CNS, entry `CSc1nc2ccc(C)cc2cc1/C=N/O`
95.7

For SNB-19 CNS, provide growth of `CCCCNC(=O)Oc1ccc(/C(=C(\C)c2ccc(Cl)cc2)c2ccc(OCCN(CC)CC)cc2)cc1` please.
86

Lookup: growth / SNB-19 CNS / `Nc1nn(C(=O)Nc2ccc(Cc3ccccc3)cc2)c2ccc(Cl)cc12`
83.4

GET /values?readout=growth&system=SNB-19 CNS&item= `Fc1cc(-c2nnc3sc(-c4ccc(Cl)cc4Cl)nn23)c(Cl)cc1Cl`
79.5

So what growth did `Cn1cc(-c2ccc3cc(-c4ccc(CC(=O)Nc5cc(C(C)(C)C)nn5C)cc4)cnc3c2)cn1` get with SNB-19 CNS?
29.2

Test system SNB-19 CNS; read-out growth; what value for `CC/C=C\C[C@@H]1C/C=C2/C(=O)C=C[C@H]2C/C=C\CCCC(=O)O1` ?
-31.4

So what growth did `CCOC(=O)c1c(C)nc2c(c1N)CC(=O)N2Cc1ccc(F)cc1` get with SNB-19 CNS?
97.1

Form field - read-out: growth; system: SNB-19 CNS; submitted item: `CN1CCN(c2ccc(-c3ccc4ncc(C#N)c(Nc5ccc(F)c(Cl)c5)c4c3)cn2)CC1`
74.7

Quick check: growth on SNB-19 CNS, item `NCCCNc1nc2ccccc2c2c(=O)c3cc(F)cc(F)c3sc12` ?
87.1

Form: Entry = `NCCOc1ncccc1/C=C1\c2ccccc2-c2ccc(C(F)F)cc21` | System = SNB-19 CNS | growth = ____
40.4
